Values from ChEMBL document CHEMBL1201862

System: OVCAR-8
MEASUREMENT_DESCRIPTION: NCI tumour cell line growth inhibition, 48 h
Activity calls are given as the source filed them. Cut-off read from the data, not from the text of the source: active = GI50 up to about 1.1 µM and inactive = higher.
Possible outcomes: yes = active, no = inactive

COMPOUND	TARGET_ENTITY	GROUP
CC(=O)C1CC2(c3ccccc3)C(=O)c3ccccc3N2O1 (stereo not given)	OVCAR-8	no
O=C1CCC(NC(=O)c2ccccc2)C(=O)N1 (stereo not given)	OVCAR-8	no
COC(=O)[C@H]1C[C@H]1NC(=O)C(CC(=O)OCc1ccccc1)NC(=O)OCc1ccccc1 (stereo not given in full)	OVCAR-8	no
C[C@@H]1C[C@H](O)[C@]2(O)O[C@@H]3C[C@@]4(C=O)[C@@H](CC[C@@H]5[C@@H]4CC[C@]4(C)[C@@H](C6=CC(=O)OC6)CC[C@]54O)C[C@H]3O[C@@H]2O1	OVCAR-8	yes
COC(=O)NC12CC3CC(CC(F)(C3)C1)C2	OVCAR-8	no
C/C(=N\NC(=O)c1ccncc1)c1ccccc1Cl	OVCAR-8	no
C/C(=C\c1ccccc1)C(=O)c1c(C)cc(C)cc1C	OVCAR-8	no
CCOC(=O)[C@]12C3C=CC(C3)C1C(=O)C1OC12 (stereo not given in full)	OVCAR-8	no
O=C1CCc2ccc3c(c21)CC1(Cc2ccccc2C1)C3	OVCAR-8	no
COC(=O)[C@@]1(Cc2ccc(O)cc2)C[C@@H]2Cc3ccccc3N2N1	OVCAR-8	no

* * *

System: IGROV-1
MEASUREMENT_DESCRIPTION: NCI tumour cell line growth inhibition, 48 h
The source made the active and inactive calls. No stated cut-off is given here; in the data, active = GI50 up to about 1.1 µM and inactive = higher.
Classes used: True = active, False = inactive

In [3]: df
Out[3]:
                                    molecule  group
 0  CCCCCCCCCCCCCP(=O)(NCC(N)=O)OCC (stereo not drawn)  False
 1  O=c1[nH]c(=S)[nH]n1C(=S)n1[nH]c(=S)[nH]c1=O  False
 2  CC1=C(NC(=O)C(=O)NNC(=O)c2ccncc2)C(=O)c2ccccc2C1=O  False
 3  Cn1c(CO)ccc1-c1ccc(-c2ccc(CO)[se]2)[se]1   True
 4  COc1ccc(CC(C#N)c2cc(OC)c(OC)c(OC)c2)cc1 (stereo not drawn)   True
 5  OC12c3ccccc3C1CCCCCCCCCC21OCCO1 (stereo not drawn)  False
 6  O=C1CCC(NC(=O)c2ccccc2)C(=O)N1 (stereo not drawn)  False
 7  COc1cc(Nc2n[nH]c(NS(=O)(=O)c3cc(C)c(Cl)cc3S)n2)cc(OC)c1OC  False
 8  CC(=O)/C=C/C1=C(C)CCCC1(C)CC(C)C (stereo not drawn)  False
 9          N#C/C(=C\c1cc(F)cc(F)c1)c1ccccn1  False
10          CCn1c(CCl)nc2c1C(=O)c1ccccc1C2=O  False
11                  O=c1[nH]nc(Cc2ccccc2)n1O  False
12  CC(=O)OCC1OC(n2cc(F)c(=O)[nH]c2=O)C(OC(C)=O)C1OC(C)=O (stereo not drawn)  False
13  NC(CCCCCP(=O)(O)O)C(=O)O (stereo not drawn)  False
14  NC(=O)c1ccc[n+](C2=C([N-]S(=O)(=O)c3ccccc3)C(=O)c3ccccc3C2=O)c1  False
15  O=C(OCc1ccccc1)c1ccccc1-c1c2ccc(=O)cc-2oc2cc(OCc3ccccc3)ccc12  False
16  CCCNC(=O)C1C(=O)C(=O)N(CCC)C1=O (stereo not drawn)  False
17  CN(C)CCNC(=O)c1cccc2ccc(-c3ccc(Br)cc3)nc12  False
18        OC(c1ccccc1Br)(c1ccccc1Br)C(F)(F)F  False
19  CCc1cccc(C)c1NC(=O)CC1C(=O)Nc2ccccc2S1(=O)=O (stereo not drawn)  False
20  CCCCOC(=O)/C(CC(=O)C=C(C)C)=N\NS(=O)(=O)c1ccc(C)cc1  False
21  CC1CC/C(=C\c2ccc(F)cc2)C2=C1C(c1ccc(F)cc1)NC(=S)N2 (stereo not drawn)  False
22  COC(=O)C(Cc1c[nH]c2ccccc12)NP(=O)(O)OCC1OC(n2cc(F)c(=O)[nH]c2=O)CC1O (stereo not drawn)  False

* * *

Tested on: SK-MEL-5
MEASUREMENT_DESCRIPTION: NCI tumour cell line growth inhibition, 48 h
Calls of active or inactive are those of the source. Cut-off read from the data, not from the text of the source: active = GI50 up to about 1.1 µM and inactive = higher.
ASSAY_READOUT: GI50

>>> print(df.to_string())
                                    compound  target_entity                value
 0  CCC1(c2ccc(OC)c(OC)c2)CCN2C(=O)C(O)CC21 (stereo unspecified)       SK-MEL-5  > 100 µM (inactive)
 1         CN(/N=C/c1ccccc1C(=O)O)C1=NCCCCN1       SK-MEL-5  > 100 µM (inactive)
 2  O=C1OC2C(O)COC2(O)C1(O)Cc1c[nH]c2ccccc12.O=C1OC2C(O)COC2(OCc2c[nH]c3ccccc23)C1O (stereo unspecified)       SK-MEL-5  > 100 µM (inactive)
 3  CCC(CCCCC1CC[C@H]2CC(=O)C[C@@H]12)OC (stereo partly specified)       SK-MEL-5   79.8 µM (inactive)
 4  COc1cc2c(c(OC)c1)[C@H](C)N(Cc1ccccc1)C(C)C2 (stereo partly specified)       SK-MEL-5   25.4 µM (inactive)
 5  c1ccc2c(C3CCN(CCN4CCOCC4)C3)c[nH]c2c1 (stereo unspecified)       SK-MEL-5  > 100 µM (inactive)
 6  CN1C(C)(C)CC(=O)C(Br)C1(C)C (stereo unspecified)       SK-MEL-5  > 100 µM (inactive)
 7    COc1cc([N+](=O)[O-])ccc1NC1=CC(=O)CCC1       SK-MEL-5  > 100 µM (inactive)
 8        O=P(O)(NCCCl)NCCCl [PALIFOSFAMIDE]       SK-MEL-5   > 10 µM (inactive)
 9  Nc1ccc(Nc2nc(F)nc(-c3c4ccccc4c4n3CCS4)n2)cc1       SK-MEL-5   13.1 µM (inactive)
10                   CCOC(=O)C(=O)Nc1ccccc1C       SK-MEL-5  > 100 µM (inactive)

* * *

Test system: SF-295
MEASUREMENT_DESCRIPTION: NCI tumour cell line growth inhibition, 48 h
Active and inactive are the calls of the source. Rule as the data show it: active = GI50 up to about 1.1 µM and inactive = higher.
ASSAY_READOUT: GI50

                                   compound  assay_readout                value
0            CCSC1=N/C(=C/c2ccccc2O)C(=O)N1           GI50     91 µM (inactive)
1     NC(=O)c1cn(Cc2ccccc2)c(=O)n1Cc1ccccc1           GI50  > 100 µM (inactive)
2  O=C1/C(=C/c2ccccc2)CN(C(=O)Oc2ccccc2)C/C1=C\c1ccccc1           GI50   11.2 µM (inactive)
3  C=C1C(=O)O[C@@]23C1CC[C@@H](C)C2CC[C@@]1(C)OC31 (stereo partly specified)           GI50   18.2 µM (inactive)
4          C/C(=N\NC(=O)c1ccncc1)c1ccccc1Cl           GI50  > 100 µM (inactive)
5    Cc1cccc(N(CC(=O)O)S(=O)(=O)c2ccccc2)c1           GI50  > 100 µM (inactive)

* * *

System: TK-10
MEASUREMENT_DESCRIPTION: NCI tumour cell line growth inhibition, 48 h
Activity calls are given as the source filed them. Rule as the data show it: active = GI50 up to about 1.1 µM and inactive = higher.
Classes used: Y for active, N for inactive

>>> print(df.to_string())
                                    molecule  target_entity  group
 0           CN1CCN(c2ccc3c(c2)NCC(=O)N3)CC1          TK-10      N
 1            Clc1c(C(Cl)(Cl)Cl)nsc1N1CCCCC1          TK-10      N
 2  O=[N+]([O-])c1cc(F)ccc1S(=O)(=O)c1ccccc1          TK-10      N
 3  CCOC(=O)C1C(=O)CC(O)(c2ccccc2)C(C(=O)OCC)C1c1ccc(N(C)C)cc1 (stereo not drawn)          TK-10      N
 4          Nc1ccc2c(=O)cc(-c3cccs3)[nH]c2n1          TK-10      N
 5                   CCOC(=O)C(=O)Nc1ccccc1C          TK-10      N
 6  COC1C2c3cc4c(cc3CC(C#N)(c3ccccc32)N1C(=O)c1ccccc1)OCO4 (stereo not drawn)          TK-10      N
 7  CC1CC(C)(O)CC(C(O)CC2CC(=O)NC(=O)C2)C1=O (stereo not drawn)          TK-10      Y
 8                       Oc1cc(Cl)cc2cccnc12          TK-10      N
 9  COC(=O)[C@@H]1CC(C(C[N+](=O)[O-])c2ccc(O[Si](C)(C)C(C)(C)C)cc2)C(=O)N1C(=O)OC(C)(C)C (stereo partly drawn)          TK-10      N
10  COc1cc2c(cc1OCCCC(=O)Nc1cc(C(=O)Nc3cc(C(=O)Nc4cc(C(=O)NCCCN(C)C)n(C)n4)n(C)c3)n(C)c1)N=CC1CCCN1C2=O (stereo not drawn)          TK-10      N
11      C/C(=C\c1ccccc1)C(=O)c1c(C)cc(C)cc1C          TK-10      N
12     Cn1c2ccccc2n2c(=O)c3c(c(C#N)c12)CCCC3          TK-10      N
13  CC1SC2=NC3=C(c4ccccc4C3=O)C(c3ccc(F)cc3)N2C1=O (stereo not drawn)          TK-10      N
14  CCOC(=O)c1cc2c3ccn(Cc4ccccc4)c3c3c(C)noc3c2[nH]1          TK-10      N
15          CCn1c(CCl)nc2c1C(=O)c1ccccc1C2=O          TK-10      N
16  C/C(=N\NC(=S)N1CCN(C2CCCCCC2)CC1)c1ccccn1          TK-10      Y
17  COc1cc2c(NCCCCCCO[N+](=O)[O-])ncnc2c(OC)c1OC          TK-10      N
18        COc1ccc2ccccc2c1/C=C/C(=O)c1ccccc1          TK-10      N
19                 Cc1nc2[nH]ncn2c(=O)c1CCCl          TK-10      N
20  O=C(O)c1ccc(Nc2nc3nn(Cc4ccccc4)cc3c(=O)s2)cc1          TK-10      N
21  CC(C)C1=CCC2C(=C1)CCC1C(C)(C(=O)O)CCCC21C (stereo not drawn)          TK-10      N
22         CN(/N=C/c1ccccc1C(=O)O)C1=NCCCCN1          TK-10      N
